compounds and their reported viability, T/C
Tested on: 648629-189-R-J1-PDC complex spheroids viability;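 note: drug exposure lasted seven days before viability readout; 100% = DMSO vehicle control wells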
Experiment notes: Anticancer human tumor 648629-189-R-J1-PDC patient-derived bladder carcinoma cell line growth inhibition [CLK]
Recorded conditions: second compound 0.0316 µM; first compound 0.00316 µM; hits give low values
Write the number in % without appending the unit.

Endpoint output: viability, T/C of Cn1ncnc1[C@H]1c2n[nH]c(=O)c3cc(F)cc(c23)N[C@@H]1c1ccc(F)cc1 + CNC(=O)c1ccc(Nc2nc(OC3CCCC3)c3c(-c4ccc5nc(C)oc5c4)c[nH]c3n2)c(OC)c1 . Value?
95.4

# lookup: viability, T/C of CCc1c2c(nc3ccc(O)cc13)-c1cc3c(c(=O)n1C2)COC(=O)[C@]3(O)CC + CN1CCN(c2cc(C(=O)Nc3cc4cc(-c5cnn(C)c5)ccc4cn3)ccn2)CC1
36.5

Lab note: next compound to report on.
Reported viability, T/C, compound COc1c(OCCCN2CCOCC2)ccc2c3n(c(=NC(=O)c4cnc(N)nc4)nc12)CCN3 + CNC(=O)c1ccc(Nc2nc(OC3CCCC3)c3c(-c4ccc5nc(C)oc5c4)c[nH]c3n2)c(OC)c1 : ____
94.5
